- Test system: RAW264.7
- method-description: Antiinflammatory activity in mouse RAW264.7 cells assessed as inhibition of LPS-induced NO production preincubated for 1 hrs followed by LPS stimulation and measured after 24 hrs by Griess method
- Assay type: functional, cell-based
pIC50: −log10 of the molar value.
Reported pIC50 values for a set of compounds

compound	pIC50
COc1ccc(C/C=C/CCCCc2ccc(O)c(O)c2)cc1	4.60
COc1ccc(C/C=C/CCCCc2ccc(O)cc2)cc1	4.33
COc1ccc(C/C=C/CCCCc2cccc(O)c2)cc1	4.33
COc1ccc(C/C=C/CCCCc2ccc(OC)c(OC)c2)cc1	4.55
COc1cc(/C=C/C(=O)CC(=O)/C=C/c2ccc(O)c(OC)c2)ccc1O [CURCUMIN]	4.91

###

- Test system: J774.A1
- method-description: Antiinflammatory activity in mouse J774.A1 cells assessed as inhibition of LPS-induced NO production incubated for 24 hrs by Griess reagent based analysis
- Assay type: functional, cell-based
- conditions: J774.A1, 24 h
Listing of entries alongside the reported IC50.
measurement-kind: IC50

smiles-notation	target-desc	measurement-kind	reported
OC[C@H]1O[C@@H](O[C@H](CCCCc2ccc(O)cc2)CCc2ccc(O)cc2)[C@H](O)[C@@H](O)[C@@H]1O	J774.A1	IC50	100 µM
O=C1O[C@H]([C@@H](O)CO)C(O)=C1O	J774.A1	IC50	> 100 µM

###

- method-description: Cytotoxicity against mouse RAW264.7 cells assessed as reduction in cell viability by MTT assay
- Assay type: toxicity, cell-based

compound	IC50
O=C(/C=C/c1ccc(O)c(O)c1)CC/C=C/c1ccc(O)c(O)c1	9 µM
O=C(/C=C/CCc1ccc(O)c(O)c1)CCc1ccc(O)c(O)c1 [DEHYDROHIRSUTANONOL]	39 µM
O=C(/C=C/C=C/c1ccc(O)c(O)c1)CCc1ccc(O)c(O)c1	36.4 µM

###

- System: RAW264.7
- method-description: Antiinflammatory activity in mouse RAW264.7 cells assessed as inhibition of LPS-induced IL-6 production
- Type: functional, cell-based
Collected IC50 values appear next to each entry.

smiles-notation	IC50 [µM]
O=c1c(O)c(-c2ccc(O)c(O)c2)oc2cc(O)cc(O)c12	16.8
COc1cc2cc(c1O)-c1cc(ccc1O)CC[C@H](O)CCCC2	20.3
COc1cc2cc(c1O)-c1cc(ccc1O)CC[C@H](OS(=O)(=O)O)CCCC2	22.7

###

- method-description: Antioxidant activity assessed as DPPH radical scavenging activity incubated for 30 mins by spectrophotometric analysis
- Assay type: functional
measurement-kind: IC50 (µM)

compound	censoring-operator	reported
COc1c2cc(c(OC)c1OC)-c1cc(ccc1O)CC(O)C(=O)CCCC2 (configuration not stated)	>	250
O=C(CCCCc1ccc(O)c(O)c1)CCc1ccc(O)c(O)c1	=	20.1
O=C(/C=C/CCc1ccc(O)c(O)c1)CCc1ccc(O)c(O)c1 [DEHYDROHIRSUTANONOL]	=	13.4
Oc1ccc(CCCC[C@@H](O)CCc2ccc(O)c(O)c2)cc1O	=	23.3
Oc1ccc(CCCC[C@@H](O)CCc2ccc(O)cc2)cc1	=	44.4
O=C1O[C@H]([C@@H](O)CO)C(O)=C1O [ASCORBIC ACID]	=	24.8
O=C(CCc1ccc(O)c(O)c1)C[C@@H](O)CCc1ccc(O)c(O)c1 [HIRSUTANONOL]	=	26
